These measurements were taken from patent US12195482B1.

# TARGET DESC: Axl (Homo sapiens)
# Sequence (P30530 26-894): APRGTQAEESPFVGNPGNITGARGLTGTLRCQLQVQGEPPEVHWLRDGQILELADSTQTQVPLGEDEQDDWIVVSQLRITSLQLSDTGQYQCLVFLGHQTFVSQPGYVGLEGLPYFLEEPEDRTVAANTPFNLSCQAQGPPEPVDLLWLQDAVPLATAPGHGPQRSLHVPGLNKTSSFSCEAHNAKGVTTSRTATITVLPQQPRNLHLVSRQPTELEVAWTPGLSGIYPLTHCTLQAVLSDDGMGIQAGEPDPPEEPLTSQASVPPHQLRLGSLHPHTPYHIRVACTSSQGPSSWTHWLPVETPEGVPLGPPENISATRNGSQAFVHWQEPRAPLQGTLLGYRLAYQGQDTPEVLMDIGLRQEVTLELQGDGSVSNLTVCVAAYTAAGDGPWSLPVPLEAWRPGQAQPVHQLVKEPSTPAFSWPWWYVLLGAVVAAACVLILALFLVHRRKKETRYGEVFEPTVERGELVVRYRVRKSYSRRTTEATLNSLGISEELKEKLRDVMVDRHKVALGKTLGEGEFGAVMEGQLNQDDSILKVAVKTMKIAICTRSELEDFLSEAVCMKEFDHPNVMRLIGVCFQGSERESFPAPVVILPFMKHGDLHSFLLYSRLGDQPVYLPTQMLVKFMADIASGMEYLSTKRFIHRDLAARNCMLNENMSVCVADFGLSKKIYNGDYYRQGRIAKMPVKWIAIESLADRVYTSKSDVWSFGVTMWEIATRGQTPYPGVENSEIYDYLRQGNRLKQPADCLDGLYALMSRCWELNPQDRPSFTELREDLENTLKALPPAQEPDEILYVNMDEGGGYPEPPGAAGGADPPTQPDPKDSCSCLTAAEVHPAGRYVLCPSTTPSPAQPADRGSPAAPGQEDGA
# MEASUREMENT NOTES: Axl NanoBRET intracellular kinase assay (intracellular binding, K-5 tracer displacement)
# Design: host or cells: HEK-293
# RECORDED CONDITIONS: HEK-293 cells transfected with Axl-NanoLuc, 0.35 μM K-5 NanoBRET tracer; read-out: Cell Binding AXL
# Protocol: Measuring Intracellular Binding of Axl Inhibitors Axl NanoBRET™ intracellular kinase assay (Promega, N2540) was performed according to manufacturer's recommendation. […] The day of the assay, the cells were collected and resuspended in Opti-MEM media (ThermoFisher, 31985070) at 2e5 cells/mL concentration. […] The plate was then immediately read utilizing an Envision (Perkin Elmer) plate reader. The BRET signal is measured by taking the ratio of the emissions reading at 610 nm and 450 nm. […]
MEASUREMENT TYPE: IC50

Ask: Please indicate IC50 recorded for `CN(C)C(=O)c1ccccc1-c1ccc(-c2n[nH]c3ncc(-c4ccc5c(c4)CC[C@@H](N4C6COCC4C6)CC5)cc23)cc1`
Reply: < 100 nM

Ask: Answer with the recorded IC50 of `Cn1nccc1-c1ccc(-c2n[nH]c3ncc(-c4ccc5c(c4)CC[C@@H](N4C6COCC4C6)CC5)cc23)cc1` only.
Reply: < 100 nM

Ask: Quickly give me recorded IC50 for `Cn1ccnc1-c1ccc(-c2n[nH]c3ncc(-c4ccc5c(c4)CC[C@@H](N4C6COCC4C6)CC5)cc23)cc1`
Reply: < 100 nM

Ask: Supply recorded IC50 for `C[C@@H]1CCCN1[C@@]1(C)CCc2ccc(-c3cnc4[nH]nc(-c5ccc(-c6ncnn6C)cc5)c4c3)cc2CC1` here.
Reply: < 100 nM

Ask: Quickly give me recorded IC50 for `Cc1cccnc1-c1ccc(-c2c[nH]c3ncc(-c4ccc5c(c4)CC[C@@](C)(N4CCC[C@H]4C)CC5)cc23)cc1`
Reply: < 100 nM

Ask: Consider the compound `c1cncc(-c2ccc(-c3c[nH]c4ncc(-c5ccc6c(c5)CC[C@@H](N5C7COCC5C7)CC6)cc34)cc2)c1` . State its measured IC50.
Reply: 100 to 1000 nM

Ask: Indicate the recorded IC50 value for this compound: `c1cc(-c2ccc(-c3c[nH]c4ncc(-c5ccc6c(c5)CC[C@@H](N5C7COCC5C7)CC6)cc34)cc2)ccn1`
Reply: 100 to 1000 nM

* * *

# TARGET DESC: p-AXL (Homo sapiens, UniProt P30530)
# Sequence (P30530 26-894): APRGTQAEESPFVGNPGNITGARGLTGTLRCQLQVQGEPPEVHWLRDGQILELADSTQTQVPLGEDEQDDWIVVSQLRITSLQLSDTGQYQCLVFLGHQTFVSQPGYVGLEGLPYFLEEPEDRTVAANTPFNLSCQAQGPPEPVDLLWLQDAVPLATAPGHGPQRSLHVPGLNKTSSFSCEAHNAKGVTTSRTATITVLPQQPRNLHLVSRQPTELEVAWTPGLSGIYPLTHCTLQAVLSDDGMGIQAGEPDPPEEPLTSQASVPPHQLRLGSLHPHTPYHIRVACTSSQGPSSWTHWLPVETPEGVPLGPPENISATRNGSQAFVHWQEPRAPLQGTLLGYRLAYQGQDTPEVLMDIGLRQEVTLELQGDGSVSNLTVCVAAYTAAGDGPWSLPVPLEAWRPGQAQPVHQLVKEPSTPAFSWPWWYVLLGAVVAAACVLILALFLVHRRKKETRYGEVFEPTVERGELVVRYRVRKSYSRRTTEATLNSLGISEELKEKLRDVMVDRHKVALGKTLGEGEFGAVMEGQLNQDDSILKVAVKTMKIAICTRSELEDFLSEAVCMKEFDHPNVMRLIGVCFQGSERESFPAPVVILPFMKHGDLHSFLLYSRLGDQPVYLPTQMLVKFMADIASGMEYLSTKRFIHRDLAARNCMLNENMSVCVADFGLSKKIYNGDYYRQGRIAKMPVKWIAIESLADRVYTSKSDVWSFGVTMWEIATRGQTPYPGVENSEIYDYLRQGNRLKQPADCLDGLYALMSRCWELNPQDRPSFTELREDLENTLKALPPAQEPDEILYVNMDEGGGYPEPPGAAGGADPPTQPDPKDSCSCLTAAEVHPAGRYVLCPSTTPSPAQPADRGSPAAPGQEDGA
# MEASUREMENT NOTES: Axl phosphorylation inhibition ELISA in HEK293T cells transfected with NanoLuc-tagged AXL
# RECORDED CONDITIONS: 1 h compound incubation, media (OptiMEM)
Record form. Attribute: IC50. Fill in for each entry.

Ask: Look up and state reported IC50 for `c1cnc(-c2ccc(-c3n[nH]c4ncc(-c5ccc6c(c5)CC[C@@H](N5C7COCC5C7)CC6)cc34)cc2)c(O[C@@H]2CCOC2)c1`
Reply: < 100 nM

Ask: Identify measured IC50 associated with `Cc1ccc(C)c(-c2ccc(-c3c[nH]c4ncc(-c5ccc6c(c5)CC[C@@H](N5C7COC[C@H]5C7)CC6)cc34)c(F)c2)n1`
Reply: < 100 nM

Ask: Note down IC50 recorded for `FC(F)(F)Oc1cccnc1-c1ccc(-c2c[nH]c3ncc(-c4ccc5c(c4)CC[C@@H](N4C6COCC4C6)CC5)cc23)cc1`
Reply: > 1000 nM

Ask: Give reported IC50 value for `Cc1cccnc1-c1ccc(-c2c[nH]c3ncc(-c4ccc5c(c4)CC[C@@H](N4C6COCC4C6)CC5)cc23)nc1`
Reply: < 100 nM

Ask: Quote IC50 reported for `Cc1ccccc1-c1ccc(-c2c[nH]c3ncc(-c4ccc5c(c4)CC[C@@H](N4C6COCC4C6)CC5)cc23)nc1` please.
Reply: > 1000 nM

Ask: Output IC50 of `CN1CCOc2ccnc(-c3ccc(-c4n[nH]c5ncc(-c6ccc7c(c6)CC[C@@H](N6C8COCC6C8)CC7)cc45)cc3)c21`
Reply: < 100 nM

Ask: Please report IC50 for the following compound: `Cc1ccc[n+]([O-])c1-c1ccc(-c2c[nH]c3ncc(-c4ccc5c(c4)CC[C@@H](N4C6COCC4C6)CC5)cc23)cc1`
Reply: < 100 nM

Ask: Could you please provide reported IC50 for `Cc1ccnc(-c2ccc(-c3n[nH]c4ncc(-c5ccc6c(c5)CC[C@@H](N5C7COCC5C7)CC6)cc34)cc2)c1C` ? Thanks!
Reply: < 100 nM

Ask: Please look at this compound and report its IC50: `Cn1ncnc1-c1ccc(-c2n[nH]c3ncc(-c4ccc5c(c4)CC[C@@H](N4C6COCC4C6)CC5)cc23)cc1`
Reply: < 100 nM

Ask: Return IC50 for the following compound: `Cc1cccnc1-c1ccc(-c2n[nH]c3ncc(-c4ccc5c(c4)CCN(C4CCCC4)CC5)cc23)cc1`
Reply: 100 to 1000 nM

Ask: Answer with the recorded IC50 for the compound listed here: `CN(C)C(=O)c1cccnc1-c1ccc(-c2n[nH]c3ncc(-c4ccc5c(c4)CC[C@@H](N4C6COCC4C6)CC5)cc23)cc1`
Reply: < 100 nM

Ask: Please give measured IC50 of the following entry: `O=c1ccccn1-c1ccc(-c2n[nH]c3ncc(-c4ccc5c(c4)CC[C@@H](N4C6COCC4C6)CC5)cc23)cc1`
Reply: 100 to 1000 nM

Ask: Consider the compound `Cc1cnc(-c2ccc(-c3n[nH]c4ncc(-c5ccc6c(c5)CC[C@@](C)(N5CCC[C@H]5C)CC6)cc34)cc2)c(C)n1` . State its measured IC50.
Reply: < 100 nM
